Tested system: HRgpA-6H (Porphyromonas gingivalis) (UniProt P28784)
Test summary: ELISA, coated HRgpA-6H
Outcome measure: Ratio OD(Variant)/OD(WT)
The reply should be a number, written without any unit.

-- ask # get_value(readout='Ratio OD(Variant)/OD(WT)', item= KB001 mouse Fab VH S30H (Fab, V domains shown) VH: EVQLKQSGPGLVAPSQSLSITCTVSGFSLHIYSVHWVRQPPGKGLEWLGMIWGGGSSDYNSALKSRLSISKDNSKSQVFLKMNSLQTDDTAMYYCARNGNFYAMDYWGQGTSVTVSS VL: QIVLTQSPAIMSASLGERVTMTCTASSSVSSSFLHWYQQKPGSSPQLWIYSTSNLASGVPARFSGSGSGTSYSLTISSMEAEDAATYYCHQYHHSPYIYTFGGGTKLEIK )
-- reply 0.955

-- ask # get_value(readout='Ratio OD(Variant)/OD(WT)', item= KB001 mouse Fab VH K64G (Fab, V domains shown) VH: EVQLKQSGPGLVAPSQSLSITCTVSGFSLSIYSVHWVRQPPGKGLEWLGMIWGGGSSDYNSALGSRLSISKDNSKSQVFLKMNSLQTDDTAMYYCARNGNFYAMDYWGQGTSVTVSS VL: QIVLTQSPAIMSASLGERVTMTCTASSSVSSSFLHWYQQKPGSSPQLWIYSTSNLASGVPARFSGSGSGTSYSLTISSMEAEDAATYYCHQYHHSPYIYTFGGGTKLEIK )
-- reply 0.975
